tested on: Rattus norvegicus; test: Analgesic activity in iv dosed Sprague-Dawley rat assessed as duration of effect by tail-flick model of pain; format: functional
Parameter: Time
Quick note: number first, unit second.

CNC[C@@H]1CCCC[C@@]1(OC)c1cccc(OC)c1    27 min
CN(C)C[C@H]1CCCC[C@]1(O)c1cccc(O)c1 (racemic) [O-DESMETHYL TRAMADOL]    2 min
COc1cccc([C@@]2(OC)CCCC[C@@H]2CN(C)C)c1 (racemic)    20 min
COc1cccc(C2(O)CCCCC2CN(C)C)c1 (racemic) [TRAMADOL]    69 min

Recorded Time for CO[C@@]1(c2ccccc2)CCCC[C@H]1CN(C)C , please?
13 min

====

target: Mu-type opioid receptor (Homo sapiens)
Parameter: IC50 (nM)
I only need the number, in nM, no unit after it.

Check out these entries, answers already filled in.
COc1cccc([C@@]2(OC)CCCC[C@@H]2CN(C)C)c1 (racemic)    7870
CCCCO[C@]1(c2cccc(O)c2)CCCC[C@@H]1CN(C)C    97
CN(C)C[C@H]1CCCC[C@]1(OCCO)c1cccc(O)c1    190

Mu-type opioid receptor (Homo sapiens) / IC50 / CCCO[C@]1(c2cccc(OC)c2)CCCC[C@@H]1CN(C)C : value?
7900

Now consider CNC[C@H]1CCCC[C@]1(OC)c1cccc(O)c1 (stereo in doubt; 23) .
122

// repeat for COc1cccc([C@@]2(OCC3CC3)CCCC[C@@H]2CN(C)C)c1 and report
7670

Next up: CNC[C@H]1CCCC[C@]1(OC)c1cccc(O)c1 (stereo in doubt; 26)
48

Another compound to look at: CO[C@]1(c2cccc(O)c2)CCCC[C@@H]1CN(C)C
56

====

Reported values of IC50 for individual entries
biological target: Sodium-dependent serotonin transporter (Homo sapiens, UniProt P31645); test: Inhibition of SERT mediated 5-hydroxytryptamine uptake
Sequence (P31645 whole entry): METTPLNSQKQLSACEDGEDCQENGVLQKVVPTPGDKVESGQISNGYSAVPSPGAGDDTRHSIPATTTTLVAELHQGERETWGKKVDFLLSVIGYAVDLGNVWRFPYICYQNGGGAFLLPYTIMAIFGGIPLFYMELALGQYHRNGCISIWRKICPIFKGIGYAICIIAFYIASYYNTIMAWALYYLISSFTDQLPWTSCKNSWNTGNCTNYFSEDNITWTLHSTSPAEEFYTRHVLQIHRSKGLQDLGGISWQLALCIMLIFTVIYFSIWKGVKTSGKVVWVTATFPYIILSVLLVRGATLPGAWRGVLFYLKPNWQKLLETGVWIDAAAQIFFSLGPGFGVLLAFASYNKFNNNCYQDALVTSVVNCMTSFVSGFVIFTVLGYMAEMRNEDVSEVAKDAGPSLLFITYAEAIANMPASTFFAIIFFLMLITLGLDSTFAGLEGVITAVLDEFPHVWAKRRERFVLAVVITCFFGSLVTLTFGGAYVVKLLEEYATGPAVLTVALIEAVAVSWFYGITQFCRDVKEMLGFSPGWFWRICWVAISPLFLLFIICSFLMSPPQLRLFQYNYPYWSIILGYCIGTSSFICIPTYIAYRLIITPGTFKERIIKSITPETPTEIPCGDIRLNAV

Examples from the recorded data:
CNC[C@H]1CCCC[C@]1(OC)c1cccc(O)c1 (stereo in doubt; 23)    6.92 µM
CN(C)C[C@H]1CCCC[C@]1(OCC1CC1)c1cccc(O)c1    3.67 µM
CN(C)C[C@H]1CCCC[C@]1(OCCO)c1cccc(O)c1    1.5 µM
CNC[C@@H]1CCCC[C@@]1(OC)c1cccc(O)c1    1.05 µM
CO[C@@]1(c2ccccc2)CCCC[C@H]1CN(C)C    3.88 µM
COc1cccc([C@@]2(OCC3CC3)CCCC[C@@H]2CN(C)C)c1    0.025 µM
CO[C@]1(c2cccc(O)c2)CCCC[C@@H]1CN(C)C    10 µM
COc1cccc([C@@]2(OCCO)CCCC[C@@H]2CN(C)C)c1    > 10 µM

Give its IC50 value. Item: CCO[C@]1(c2cccc(OC)c2)CCCC[C@@H]1CN(C)C
0.181 µM

Now consider CNC[C@H]1CCCC[C@]1(OC)c1cccc(O)c1 (stereo in doubt; 26) and answer again.
5.26 µM

# repeat for CO[C@]1(c2ccccc2)CCCC[C@@H]1CN(C)C (stereo in doubt; 14)
2.53 µM

====

molecular target: Sodium-dependent noradrenaline transporter (Homo sapiens, UniProt P23975); assay: Inhibition of NET mediated norepinephrine uptake
Sequence (P23975 whole entry): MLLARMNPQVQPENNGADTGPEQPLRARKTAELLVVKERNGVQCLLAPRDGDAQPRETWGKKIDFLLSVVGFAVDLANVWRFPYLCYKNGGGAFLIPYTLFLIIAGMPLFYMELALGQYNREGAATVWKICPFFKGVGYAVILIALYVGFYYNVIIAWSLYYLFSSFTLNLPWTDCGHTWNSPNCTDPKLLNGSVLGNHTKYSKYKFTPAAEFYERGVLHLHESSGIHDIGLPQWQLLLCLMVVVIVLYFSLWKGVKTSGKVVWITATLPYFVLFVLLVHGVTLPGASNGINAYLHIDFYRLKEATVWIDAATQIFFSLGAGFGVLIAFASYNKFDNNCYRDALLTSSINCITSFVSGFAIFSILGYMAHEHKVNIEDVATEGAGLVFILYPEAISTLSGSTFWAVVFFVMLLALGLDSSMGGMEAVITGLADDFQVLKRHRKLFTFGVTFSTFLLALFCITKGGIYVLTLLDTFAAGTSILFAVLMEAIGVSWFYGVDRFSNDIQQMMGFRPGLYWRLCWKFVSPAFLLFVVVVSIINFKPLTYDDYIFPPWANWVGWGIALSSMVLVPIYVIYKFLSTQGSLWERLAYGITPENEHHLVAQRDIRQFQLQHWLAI
Form field: IC50 (one value per entry).

Solved cases below.
CCO[C@]1(c2cccc(OC)c2)CCCC[C@@H]1CN(C)C    1.01 µM
COc1cccc([C@@]2(OCCO)CCCC[C@@H]2CN(C)C)c1    > 10 µM
CN(C)C[C@H]1CCCC[C@]1(OCCO)c1cccc(O)c1    5.95 µM

Give its IC50 value. Item: CO[C@]1(c2ccccc2)CCCC[C@@H]1CN(C)C (stereo in doubt; 28)
1.52 µM

Queued: CCCO[C@]1(c2cccc(OC)c2)CCCC[C@@H]1CN(C)C
3.87 µM

Ok, now CO[C@]1(c2cccc(O)c2)CCCC[C@@H]1CN(C)C
0.525 µM

Next: CCO[C@]1(c2cccc(O)c2)CCCC[C@@H]1CN(C)C
3.78 µM

====

target: UniProt P23975; assay: Inhibition of NET mediated norepinephrine uptake
# strict inequality: IC50 < 4 µM yields fulfilled, everything else yields not fulfilled

Take a look at these entries with their results.
CO[C@]1(c2ccccc2)CCCC[C@@H]1CN(C)C (stereo in doubt; 14)    fulfilled
CNC[C@H]1CCCC[C@]1(OC)c1cccc(OC)c1    not fulfilled
CCCCO[C@]1(c2cccc(OC)c2)CCCC[C@@H]1CN(C)C    not fulfilled
CCCCO[C@]1(c2cccc(O)c2)CCCC[C@@H]1CN(C)C    not fulfilled
CNC[C@H]1CCCC[C@]1(OC)c1cccc(O)c1 (stereo in doubt; 26)    not fulfilled
CO[C@@]1(c2ccccc2)CCCC[C@H]1CN(C)C    fulfilled

Item CN(C)C[C@H]1CCCC[C@]1(O)c1cccc(O)c1 (racemic) [O-DESMETHYL TRAMADOL] : IC50 beneath 4 µM, strictly?
not fulfilled

And CNCC1CCCCC1(OC)c1cccc(OC)c1 (racemic) ?
fulfilled

Next record, please: CNC[C@@H]1CCCC[C@@]1(OC)c1cccc(OC)c1
fulfilled

Moving on to CN(C)C[C@H]1CCCC[C@]1(OCC1CC1)c1cccc(O)c1
not fulfilled

Let us now turn to COc1cccc(C2(O)CCCCC2CN(C)C)c1 (racemic) [TRAMADOL]
fulfilled

Also need CCCO[C@]1(c2cccc(O)c2)CCCC[C@@H]1CN(C)C , thanks.
not fulfilled

Request: CNC[C@@H]1CCCC[C@@]1(OC)c1cccc(O)c1
not fulfilled

How about this compound: COc1cccc([C@@]2(OCC3CC3)CCCC[C@@H]2CN(C)C)c1
fulfilled

====

test: Stability in human liver microsome after 60 mins; assay type: ADME; details: liver microsomes, read-out: Stability
In this section, each of the compounds is paired with its reported remaining at 1 h.
# number only, unit % dropped from output

CO[C@]1(c2cccc(C#N)c2)CCCC[C@@H]1CN(C)C    89
COc1cccc([C@@]2(OCC3CC3)CCCC[C@@H]2CN(C)C)c1    29

Reported remaining at 1 h for CO[C@]1(c2ccccc2)CCCC[C@@H]1CN(C)C (stereo in doubt; 14) : what is it?
96

Try this compound next: CO[C@]1(c2cccc(O)c2)CCCC[C@@H]1CN(C)C
104

Again, but for COc1cccc(C2(O)CCCCC2CN(C)C)c1 (racemic)
96

Check CNC[C@H]1CCCC[C@]1(OC)c1cccc(O)c1 (stereo in doubt; 23) too.
103

Here is the next compound: CNCC1CCCCC1(OC)c1cccc(OC)c1 (racemic)
77

Same question for CCCCO[C@]1(c2cccc(OC)c2)CCCC[C@@H]1CN(C)C please.
9

// same read-out, input: COc1cccc([C@@]2(OC)CCCC[C@@H]2CN(C)C)c1 (racemic)
82

====

Entries and their measured bioavailability follow.
experiment: Bioavailability in […] dosed Sprague-Dawley rat; type: ADME, organism-based; details: in vivo
Expressed in %, but write only the number.

COc1cccc(C2(O)CCCCC2CN(C)C)c1 (racemic)    36

Consider the additional compound presented here.
Reported bioavailability, compound COc1cccc([C@@]2(OC)CCCC[C@@H]2CN(C)C)c1 (racemic) : ____
11

====

assay: Stability in rat liver S9 fraction after 60 mins; type: ADME, subcellular; conditions: read-out: Stability
Parameter: remaining at 1 h (%)
Kindly provide the numeric value in % only, without the unit symbol.

CNCC1CCCCC1(OC)c1cccc(OC)c1 (racemic)    26
CCCCO[C@]1(c2cccc(OC)c2)CCCC[C@@H]1CN(C)C    4
CO[C@]1(c2cccc(C#N)c2)CCCC[C@@H]1CN(C)C    83
COc1cccc(C2(O)CCCCC2CN(C)C)c1 (racemic)    56
CO[C@]1(c2ccccc2)CCCC[C@@H]1CN(C)C (stereo in doubt; 14)    61

Suppose we examine the compound CO[C@]1(c2cccc(O)c2)CCCC[C@@H]1CN(C)C ; what remaining at 1 h value has been reported?
74

====

target: Sodium-dependent serotonin transporter (Homo sapiens); assay: Inhibition of SERT mediated 5-hydroxytryptamine uptake
Parameter: pIC50
Friendly reminder that pIC50 comes from taking -log10 of the concentration in mol/L.

CCO[C@]1(c2cccc(O)c2)CCCC[C@@H]1CN(C)C    5.85
CCCO[C@]1(c2cccc(OC)c2)CCCC[C@@H]1CN(C)C    7.60

Returns the measured pIC50 for the input molecule. Input: CCCCO[C@]1(c2cccc(OC)c2)CCCC[C@@H]1CN(C)C
6.96

====

# pIC50 measurements, system: Mu-type opioid receptor (Homo sapiens, UniProt P35372)
# Sequence (P35372 whole entry): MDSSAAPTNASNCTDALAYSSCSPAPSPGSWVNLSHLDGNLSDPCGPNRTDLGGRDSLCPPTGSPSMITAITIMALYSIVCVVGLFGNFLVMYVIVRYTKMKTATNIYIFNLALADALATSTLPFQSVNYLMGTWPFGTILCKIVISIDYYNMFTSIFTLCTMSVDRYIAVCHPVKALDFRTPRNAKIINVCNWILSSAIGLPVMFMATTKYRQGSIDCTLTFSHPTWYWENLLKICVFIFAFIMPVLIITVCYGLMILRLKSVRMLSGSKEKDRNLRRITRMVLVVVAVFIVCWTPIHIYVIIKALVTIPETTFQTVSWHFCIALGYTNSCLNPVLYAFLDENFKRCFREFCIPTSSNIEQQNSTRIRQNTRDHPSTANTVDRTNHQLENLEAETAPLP
Answer as the number alone; pIC50 is minus log10 of concentration in mol/L.

CO[C@]1(c2ccccc2)CCCC[C@@H]1CN(C)C (stereo in doubt; 14)    5.32
COc1cccc([C@@]2(OCCCO)CCCC[C@@H]2CN(C)C)c1    5.10
CNC[C@@H]1CCCC[C@@]1(OC)c1cccc(O)c1    7.08

# ---- query compound ----
Which pIC50 value is on record for CN(C)C[C@H]1CCCC[C@]1(OCC1CC1)c1cccc(O)c1 ?
6.89
